Cited source for all entries: patent US12180187B2

tested on: LOLRI; assay: Pre-emergence action against LOLRI, 1280 g/ha; format: in vivo, Lolium rigidum; settings: visual scoring after about 3 weeks vs untreated controls, 100% = plants have died, 0% = like control plants
In this section, each of the compounds is paired with its reported Pre-emergence action against LOLRI.
Please give a number only; it is taken to be in %.

Illustrative cases are given below, each with its answer.
1. COC(=O)CNC(=O)COc1nn(-c2ccccc2F)c(-c2ccc(F)nc2)c1C(F)(F)F	100
2. C[C@@H](Oc1nn(-c2ccccc2F)c(-c2cnccn2)c1Br)C(=O)O	90
3. O=C(O)COc1nn(-c2ccc(F)cc2)c(-c2ccc(F)nc2)c1I	90
4. COC(=O)CNC(=O)COc1nn(-c2ccccc2F)c(-c2ccnc(F)c2)c1Br	90
5. O=C(COc1nn(-c2ccccc2F)c(-c2cncnc2)c1Br)OCc1ccccc1	100
6. CS(=O)(=O)NC(=O)COc1nn(-c2ccccc2F)c(-c2ccc(F)nc2)c1Br	100
7. C[C@@H](Oc1nn(-c2ccccc2F)c(-c2cncnc2)c1Cl)C(=O)O	100

Consider the additional compound presented here.
*Q* Give its Pre-emergence action against LOLRI value. Item: O=C(O)CNC(=O)COc1nn(-c2ccccc2F)c(-c2ccc(F)nc2)c1Br
*A* 100

###

tested on: AMARE; experiment: Pre-emergence action against AMARE, 1280 g/ha; format: in vivo, Amaranthus retroflexus; settings: scored visually after about 3 weeks vs untreated controls (100% = plants have died)
propertyMeasured: Pre-emergence action against AMARE (%)
Please give a number only; it is taken to be in %.

Illustrative cases are given below, each with its answer.
1) CCOC(=O)COc1nn(-c2ccccc2F)c(-c2cnccn2)c1Br [Example I-004]	100
2) COC(=O)[C@@H](C)Oc1nn(-c2ccccc2F)c(-c2cnccn2)c1Br [Example I-001]	100
3) COC(=O)COc1nn(-c2c(F)cccc2F)c(-c2ccc(F)nc2)c1Br [VII-109]	100
4) CCOC(=O)C(C)Oc1nn(-c2ccccc2F)c(-c2ccc(F)nc2)c1I (stereo not drawn) [VII-057]	100
5) CSCCOC(=O)COc1nn(-c2ccccc2F)c(-c2ccc(F)nc2)c1Br [VII-124]	100

*Q* Give its Pre-emergence action against AMARE value. Item: O=C(O)C1CCN(C(=O)COc2nn(-c3ccccc3F)c(-c3cncc(F)c3)c2Br)C1 (stereo not drawn) [Example X-040]
*A* 90

*Q* Give its Pre-emergence action against AMARE value. Item: N#CCCNC(=O)COc1nn(-c2ccccc2F)c(-c2ccc(F)cn2)c1Br [II-005]
*A* 90

###

system: AMARE; test: Post-emergence action at 320 g/ha against AMARE; assay type: in vivo, Amaranthus retroflexus; conditions: visual rating about 3 weeks after treatment vs untreated controls
propertyMeasured: Post-emergence action against AMARE in % (%)
Please give a number only; it is taken to be in %.

1) COC(=O)CNC(=O)COc1nn(-c2ccccc2F)c(-c2ccc(F)nc2)c1Br [Example X-002]	100

*Q* Give its Post-emergence action against AMARE in % value. Item: COC(=O)COc1nn(-c2ccccc2F)c(-c2ccc(F)nc2)c1Br [VII-001]
*A* 90

*Q* Give its Post-emergence action against AMARE in % value. Item: CCOC(=O)COc1nn(-c2ccccc2F)c(-c2ccnc(F)c2)c1Br [VIII-002]
*A* 80

###

tested on: ABUTH; experiment: Post-emergence action against ABUTH, 1.28 kg/ha; assay type: in vivo, Abutilon theophrasti; settings: dosage 1280 g/ha, visual rating about 3 weeks after treatment vs untreated controls (100% = plants died)
propertyMeasured: Post-emergence action against ABUTH (%)
Please give a number only; it is taken to be in %.

1) N#CCCOC(=O)COc1nn(-c2ccccc2F)c(-c2ccc(F)nc2)c1Br [VII-110]	90

*Q* Give its Post-emergence action against ABUTH value. Item: O=C(COc1nn(-c2ccccc2F)c(-c2ccc(F)nc2)c1C(F)(F)F)NS(=O)(=O)CC(F)(F)F [Example X-006]
*A* 90

*Q* Give its Post-emergence action against ABUTH value. Item: O=C(COc1nn(-c2ccccc2F)c(-c2cncnc2)c1Br)OCc1ccccc1 [VI-002]
*A* 90

*Q* Give its Post-emergence action against ABUTH value. Item: C#Cc1c(OCC(=O)OCC)nn(-c2ccccc2F)c1-c1ccc(F)nc1 [VII-088]
*A* 90

*Q* Give its Post-emergence action against ABUTH value. Item: O=C(O)COc1nn(-c2ccccc2F)c(-c2cncc(F)c2)c1Br [VII-025]
*A* 90

*Q* Give its Post-emergence action against ABUTH value. Item: CSCCOC(=O)COc1nn(-c2ccccc2F)c(-c2ccc(F)nc2)c1Br [VII-124]
*A* 90

###

system: ECHGC; assay: Pre-emergence action at 320 g/ha against ECHGC; format: in vivo, Echinochloa crus-galli; conditions: visual scoring after about 3 weeks vs untreated controls
propertyMeasured: Pre-emergence action against ECHGC in % (%)
Please give a number only; it is taken to be in %.

Illustrative cases are given below, each with its answer.
1) O=C(O)C(F)Oc1nn(-c2ccccc2F)c(-c2ccc(F)nc2)c1Br (stereo not drawn) [VII-057-a]	80
2) O=C(O)COc1nn(-c2ccccc2F)c(-c2cncc(F)c2)c1Br [VII-025]	100
3) CCOC(=O)COc1nn(-c2ccccc2F)c(-c2cncc(F)c2)c1Br [VII-015]	90
4) O=C(COc1nn(-c2ccccc2F)c(-c2ccc(F)nc2)c1Br)OCC1OCCO1 [VII-103]	80
5) CCOC(=O)[C@@H](C)Oc1nn(-c2cc(F)ccc2F)c(-c2cncc(F)c2)c1Br [VII-136]	90

*Q* Give its Pre-emergence action against ECHGC in % value. Item: COC(=O)[C@@H](C)Oc1nn(-c2ccccc2)c(-c2cccnc2)c1Cl [VII-041]
*A* 80

*Q* Give its Pre-emergence action against ECHGC in % value. Item: CC(Oc1nn(-c2ccccc2F)c(-c2ccc(F)nc2)c1I)C(=O)O (stereo not drawn) [VII-118]
*A* 90

*Q* Give its Pre-emergence action against ECHGC in % value. Item: COC(=O)COc1nn(-c2ccccc2F)c(-c2ccc(F)nc2)c1F [VII-040]
*A* 90

*Q* Give its Pre-emergence action against ECHGC in % value. Item: CCOC(=O)COc1nn(-c2ccccc2F)c(-c2ccc(F)nc2)c1F [VII-034]
*A* 90

###

test system: AMARE; experiment: Post-emergence action at 320 g/ha against AMARE; type: in vivo, Amaranthus retroflexus; conditions: visual rating about 3 weeks after treatment vs untreated controls
propertyMeasured: Post-emergence action against AMARE in % (%)
Please give a number only; it is taken to be in %.

1) CN(C)S(=O)(=O)NC(=O)COc1nn(-c2ccccc2F)c(-c2ccc(F)nc2)c1Br	80

*Q* Give its Post-emergence action against AMARE in % value. Item: COC(=O)C(C)Oc1nn(-c2ccccc2)c(-c2ccc(F)nc2)c1Br (centres unmarked) [VII-014]
*A* 90

*Q* Give its Post-emergence action against AMARE in % value. Item: COC(=O)COc1nn(-c2ccccc2)c(-c2ccc(F)nc2)c1Br
*A* 90

*Q* Give its Post-emergence action against AMARE in % value. Item: COC(=O)CCOC(=O)COc1nn(-c2ccccc2F)c(-c2ccc(F)nc2)c1Br
*A* 90

*Q* Give its Post-emergence action against AMARE in % value. Item: COC(=O)COc1nn(-c2ccccc2F)c(-c2cncc(F)c2)c1Br
*A* 90

###

In this section, each of the compounds is paired with its reported pest or weed control at 1280 g/ha.
test system: AMARE; assay: Pre-emergence action against AMARE, 1280 g/ha; type: in vivo, Amaranthus retroflexus; conditions: Amaranthus retroflexus, 504 h, scored visually after about 3 weeks vs untreated controls (100% = plants have died)
Please give a number only; it is taken to be in %.

1. COC(=O)[C@@H](C)Oc1nn(-c2ccccc2F)c(-c2cncnc2)c1Br	100
2. COC(=O)COc1nn(-c2ccccc2F)c(-c2cncnc2)c1Br	100
3. CCOC(=O)COc1nn(-c2ccccc2F)c(-c2ccnnc2)c1Br	90
4. COC(=O)C(C)Oc1nn(-c2ccccc2)c(-c2ccc(F)nc2)c1Cl (stereo not shown)	100

*Q* Give its pest or weed control at 1280 g/ha value. Item: CCOC(=O)COc1nn(-c2ccccc2F)c(-c2ccnc(F)c2)c1Br
*A* 100

*Q* Give its pest or weed control at 1280 g/ha value. Item: CCOC(=O)COc1nn(-c2ccccc2F)c(-c2ccnnc2)c1C#N
*A* 90

*Q* Give its pest or weed control at 1280 g/ha value. Item: CCOC(=O)COc1nn(-c2ccccc2F)c(-c2ccc(F)nc2)c1Br
*A* 100

*Q* Give its pest or weed control at 1280 g/ha value. Item: O=C(O)COc1nn(-c2ccccc2F)c(-c2cncnc2)c1Br
*A* 100

*Q* Give its pest or weed control at 1280 g/ha value. Item: C=CCNC(=O)COc1nn(-c2ccccc2F)c(-c2ccc(F)nc2)c1Br
*A* 100

*Q* Give its pest or weed control at 1280 g/ha value. Item: O=C(O)COc1nn(-c2ccccc2F)c(-c2ccc(F)nc2)c1Br
*A* 100
